The measurements presented in this section are drawn from patent US8278337B2.

- target_of_assay: JNK1 (Homo sapiens, UniProt P45983)
- Sequence (P45983 whole entry, species assumed): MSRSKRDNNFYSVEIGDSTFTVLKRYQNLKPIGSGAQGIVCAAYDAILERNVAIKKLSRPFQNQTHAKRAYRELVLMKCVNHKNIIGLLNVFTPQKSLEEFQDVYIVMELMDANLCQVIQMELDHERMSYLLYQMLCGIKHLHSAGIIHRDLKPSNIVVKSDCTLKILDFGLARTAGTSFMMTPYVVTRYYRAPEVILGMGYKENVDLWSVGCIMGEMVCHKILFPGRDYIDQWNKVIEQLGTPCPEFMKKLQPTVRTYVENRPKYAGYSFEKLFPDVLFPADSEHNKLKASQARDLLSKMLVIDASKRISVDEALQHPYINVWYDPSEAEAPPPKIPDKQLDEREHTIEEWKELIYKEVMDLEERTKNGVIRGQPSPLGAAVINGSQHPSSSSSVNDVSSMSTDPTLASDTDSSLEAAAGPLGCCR
- test_description: DELFIA kinase assay, JNK1
- Format: biochemical
- condition_context: DELFIA, biotinylated GST-ATF2 substrate, 10 minute pre-incubation, final ATP 7 uM
pIC50: −log10 of the molar value.
metric: pIC50

molecule=CC(C)NC(=O)c1cccc(C(=O)NCc2cnn(-c3cncnc3)c2)n1 target_of_assay="JNK1 (Homo sapiens, UniProt P45983)" metric=pIC50 result="6.02 to 6.99"
molecule=CC(C)NC(=O)c1cccc(C(=O)NCc2cncc(Br)c2)n1 target_of_assay="JNK1 (Homo sapiens, UniProt P45983)" metric=pIC50 result="6.02 to 6.99"
molecule=CCNC(=O)c1cccc(C(=O)NC2CCN(C(=O)OCC)CC2)n1 target_of_assay="JNK1 (Homo sapiens, UniProt P45983)" metric=pIC50 result="< 6.00"
molecule="CC(C)[C@H](CO)NC(=O)c1cccc(C(=O)NCc2ccc3nc(N)sc3c2)n1 [Compound 50]" target_of_assay="JNK1 (Homo sapiens, UniProt P45983)" metric=pIC50 result="6.02 to 6.99"
molecule=CC(C)NC(=O)c1cccc(C(=O)NCc2cncc(-c3ccc(C#N)cc3)c2)n1 target_of_assay="JNK1 (Homo sapiens, UniProt P45983)" metric=pIC50 result="7.01 to 8.40"

* * *

// reported pIC50 for each item listed
- target_of_assay: JNK1 (Homo sapiens, UniProt P45983)
- test_description: DELFIA kinase assay, JNK1
- Type: biochemical
- condition_context: DELFIA, biotinylated GST-ATF2 substrate, 10 minute pre-incubation, final ATP 7 uM
pIC50: −log10 of the molar value.
metric: pIC50

compound=CC(C)NC(=O)c1cccc(C(=O)NCc2ccc(-c3ccccn3)s2)n1 result="6.02 to 6.99"
compound=Nc1nc2ccc(CNC(=O)c3cccc(C(=O)NC4CCC4)n3)cc2s1 result="7.01 to 8.40"
compound="Nc1nc2ccc(CNC(=O)c3cccc(C(=O)N[C@H](CO)Cc4ccccc4)n3)cc2s1 [Compound 23]" result="6.02 to 6.99"
compound=CS(=O)(=O)c1ccc(CNC(=O)c2cccc(-n3cc(Br)cn3)n2)cc1 result="6.02 to 6.99"
compound=CC(C)NC(=O)c1cccc(C(=O)NCC2CCN(C(=O)OC(C)(C)C)CC2)n1 result="6.02 to 6.99"
compound="CC(O)CNC(=O)c1cccc(C(=O)NCc2ccc3nc(N)sc3c2)n1 (stereo not shown)" result="< 6.00"
compound=CC(C)NC(=O)c1cccc(C(=O)NCc2cnn(-c3nccs3)c2)n1 result="6.02 to 6.99"
compound=CNCCNc1nc2ccc(CNC(=O)c3cccc(C(=O)NC(C)C)n3)cc2s1 result="7.01 to 8.40"
compound=CS(=O)(=O)c1ccc(CNC(=O)c2cccc(C(=O)NC3CCN(C(N)=O)CC3)n2)cc1 result="6.02 to 6.99"
compound=CC(C)NC(=O)c1cccc(C(=O)NCc2ccc(N3CCCC3=O)cc2)n1 result="6.02 to 6.99"
compound=CC(C)NC(=O)c1cccc(C(=O)NCc2cnn(-c3ccc(CN)cc3)c2)n1 result="7.01 to 8.40"
compound=Nc1nc2ccc(CNC(=O)c3cccc(C(=O)NCCO)n3)cc2s1 result="< 6.00"
compound=CC(C)NC(=O)c1cccc(C(=O)NCc2ccc(-c3ccccc3)cc2)n1 result="6.02 to 6.99"
compound=CC(C)NC(=O)c1cccc(C(=O)NCc2cnn(-c3ncccn3)c2)n1 result="6.02 to 6.99"
compound=CC(C)NC(=O)c1cccc(C(=O)N[C@H](C)c2ccc(O)cc2)n1 result="6.02 to 6.99"
compound="CC(C)[C@H](CO)NC(=O)c1cccc(C(=O)NCc2ccc3nc(N)sc3c2)n1 [Compound 59]" result="< 6.00"
compound=CC(C)CCNC(=O)c1cccc(C(=O)NCc2ccc3nc(N)sc3c2)n1 result="6.02 to 6.99"
compound=CC[C@@H](CO)NC(=O)c1cccc(C(=O)NCc2ccc3nc(N)sc3c2)n1 result="7.01 to 8.40"
compound=CC(C)NC(=O)c1cccc(C(=O)NCc2cccc(-c3ccc(S(C)(=O)=O)cc3)c2)n1 result="7.01 to 8.40"
compound=CS(=O)(=O)c1ccc(-n2cc(CNC(=O)c3cccc(-n4cc(I)cn4)n3)cn2)cc1 result="7.01 to 8.40"
compound=CC(C)NC(=O)c1cccc(C(=O)NCc2cnn(-c3cccc(Cl)c3)c2)n1 result="7.01 to 8.40"
compound=CCOC(=O)N1CCC(NC(=O)c2cccc(NCC3CCNCC3)n2)CC1 result="< 6.00"
compound=CC(C)NC(=O)c1cccc(C(=O)N[C@@H](C)c2ccc(O)cc2)n1 result="6.02 to 6.99"
compound=CCCNC(=O)c1cccc(C(=O)NCc2ccc3nc(N)sc3c2)n1 result="6.02 to 6.99"
compound=CC(C)NC(=O)c1cccc(C(=O)NCc2ccc(Cl)nc2)n1 result="6.02 to 6.99"
compound=Nc1nc2ccc(CNC(=O)c3cccc(C(=O)NC4CCCC4)n3)cc2s1 result="6.02 to 6.99"
compound=Nc1nc2ccc(CNC(=O)c3cccc(C(=O)NC[C@@H](O)c4ccccc4)n3)cc2s1 result="< 6.00"
compound=COc1ccc(CNC(=O)c2cccc(C(=O)NC(C)C)n2)cc1OC result="6.02 to 6.99"
compound=CC(C)CNC(=O)c1cccc(C(=O)NCc2ccc3nc(N)sc3c2)n1 result="< 6.00"
compound="CC(C)C[C@@H](CO)NC(=O)c1cccc(C(=O)NCc2ccc3nc(N)sc3c2)n1 [Compound 20]" result="< 6.00"
compound=C[C@@H](CO)NC(=O)c1cccc(C(=O)NCc2ccc3nc(N)sc3c2)n1 result="7.01 to 8.40"
compound=Nc1nc2ccc(CNC(=O)c3cccc(C(=O)NC4CCN(Cc5ccccc5)CC4)n3)cc2s1 result="< 6.00"
compound=CC(C)NC(=O)c1cccc(C(=O)NCc2ccc(-c3cc(Cl)cc(Cl)c3)nc2)n1 result="6.02 to 6.99"
compound=CCOC(=O)N1CCC(NC(=O)c2cccc(C(=O)NCC(C)C)n2)CC1 result="< 6.00"

* * *

// reported IC50 for each item listed
- target_of_assay: JNK1 (Homo sapiens)
- test_description: DELFIA kinase assay, JNK1
- Assay type: biochemical
- condition_context: DELFIA, biotinylated GST-ATF2 substrate, 10 minute pre-incubation, final ATP 7 uM
- Procedure: Assay DELFIA (Dissociation Enhanced Lanthanide Fluorescence Immuno-Assay) Assay: Before initiation of kinase reactions, compounds were pre-incubated with the enzyme for 10 minutes. […] The amount of phosphate transferred to biotinylated GST-ATF2 was measured using the Dissociation Enhanced Lanthanide Fluorescence Immuno-assay (DELFIA) from Perkin Elmer according to manufacturers protocol. […]
metric: IC50

smiles_input=CS(=O)(=O)c1ccc(CNC(=O)c2cccc(C(=O)NC3CCN(c4ccccn4)CC3)n2)cc1 metric=IC50 result="102 to 959 nM"
smiles_input=CCOC(=O)N1CCC(NC(=O)c2cccc(C(=O)NCc3ccc(-n4cccn4)cc3)n2)CC1 metric=IC50 result="102 to 959 nM"
smiles_input=CC(C)NC(=O)c1cccc(C(=O)NCc2ccc(-c3cccc(F)c3)nc2)n1 metric=IC50 result="4 to 97 nM"
smiles_input=CS(=O)(=O)c1ccc(CNC(=O)c2cccc(C(=O)NC3CCN(S(C)(=O)=O)CC3)n2)cc1 metric=IC50 result="> 1000 nM"
smiles_input=CC(C)NC(=O)c1cccc(C(=O)NCc2cnn(-c3cc(Br)cc(C#N)c3)c2)n1 metric=IC50 result="4 to 97 nM"
smiles_input=CCS(=O)(=O)N1CCC(NC(=O)c2cccc(C(=O)NCc3ccc(S(C)(=O)=O)cc3)n2)CC1 metric=IC50 result="> 1000 nM"
smiles_input=CC(C)NC(=O)c1cccc(C(=O)NCc2cnn(-c3ccc4ncn(C)c4c3)c2)n1 metric=IC50 result="4 to 97 nM"
smiles_input=CCNC(=O)N1CCC(NC(=O)c2cccc(C(=O)NCc3ccc(S(C)(=O)=O)cc3)n2)CC1 metric=IC50 result="> 1000 nM"
smiles_input=Nc1nc2ccc(CNC(=O)c3cccc(C(=O)N[C@H](CO)c4ccccc4)n3)cc2s1 metric=IC50 result="102 to 959 nM"
smiles_input=CC(C)NC(=O)c1cccc(C(=O)NCc2cncc(-c3cccc(S(C)(=O)=O)c3)c2)n1 metric=IC50 result="4 to 97 nM"
smiles_input=Cc1cccc(-n2cc(CNC(=O)c3nc(C(=O)NC(C)C)ccc3F)cn2)c1 metric=IC50 result="102 to 959 nM"
smiles_input=CC(C)NC(=O)c1cccc(C(=O)NCc2ccc(-c3ccc(F)c(Cl)c3)nc2)n1 metric=IC50 result="102 to 959 nM"
smiles_input=CC(C)NC(=O)c1cccc(C(=O)NCc2cnn(-c3ccc4nccn4c3)c2)n1 metric=IC50 result="4 to 97 nM"
smiles_input=CCOC(=O)N1CCC(NC(=O)c2cccc(C(=O)NCCO)n2)CC1 metric=IC50 result="> 1000 nM"
smiles_input=COC(=O)Nc1cccc(C(=O)NCc2cnn(-c3cccc(C(F)(F)F)c3)c2)n1 metric=IC50 result="102 to 959 nM"
smiles_input=CC(C)NC(=O)c1cccc(C(=O)NCc2cccc(Oc3ccccn3)c2)n1 metric=IC50 result="102 to 959 nM"
